- test_target: Vasoactive intestinal polypeptide receptor 2 (Homo sapiens)
- Sequence (whole entry): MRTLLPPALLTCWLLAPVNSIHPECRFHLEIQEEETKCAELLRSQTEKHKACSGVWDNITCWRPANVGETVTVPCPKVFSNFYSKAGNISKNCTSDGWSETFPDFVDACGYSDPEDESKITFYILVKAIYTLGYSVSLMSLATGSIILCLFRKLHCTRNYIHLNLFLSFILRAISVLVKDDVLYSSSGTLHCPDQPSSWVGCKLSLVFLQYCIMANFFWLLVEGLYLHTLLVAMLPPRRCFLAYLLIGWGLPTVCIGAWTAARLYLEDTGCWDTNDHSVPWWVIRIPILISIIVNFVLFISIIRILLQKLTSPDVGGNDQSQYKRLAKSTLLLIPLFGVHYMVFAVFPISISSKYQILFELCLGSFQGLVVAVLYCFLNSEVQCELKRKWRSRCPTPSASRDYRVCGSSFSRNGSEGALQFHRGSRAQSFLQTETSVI
- experiment_summary: Antagonist activity at recombinant human N-terminal signal peptide/FLAG epitope-tagged Rluc8-fused VIPR2 expressed in HEK293 cells assessed as inhibition of VIP-induced human mVenus-beta-arrestin2 binding at 1 uM preincubated for 5 mins with luciferin, coelenterazine H followed by VIP addition measured after 5 mins by BRET assay relative to control
- Type: cell-based
assay_endpoint: inhibition (%)

1: Nc1ccc(S(=O)(=O)NC[C@@H](O)C[C@@H](Cc2ccccc2)C(=O)N[C@H]2c3ccccc3C[C@H]2O)cc1
2: COc1ccc(S(=O)(=O)NC[C@@H](O)C[C@@H](Cc2ccccc2)C(=O)N[C@H]2c3ccccc3C[C@H]2O)cc1
3: CCCNc1ccc(S(=O)(=O)NC[C@@H](O)C[C@@H](Cc2ccccc2)C(=O)N[C@H]2c3ccccc3C[C@H]2O)cc1
4: O=C(NC[C@@H](O)C[C@@H](Cc1ccccc1)C(=O)N[C@H]1c2ccccc2C[C@H]1O)c1ccccn1
Ranking by inhibition (descending) is requested for the entries above. Enter labels, ranked according to the request. 2, 4, 3, 1

P: CCN(CC)C(=O)c1ccc(S(=O)(=O)NC[C@@H](O)C[C@@H](Cc2ccccc2)C(=O)N[C@H]2c3ccccc3C[C@H]2O)cc1
Q: CCCCNC(=O)[C@@H](Cc1ccccc1)C[C@H](O)CNS(=O)(=O)c1ccc([N+](=O)[O-])cc1
For P and Q , which recorded inhibition is lower? Please respond with the label that marks your chosen entry. P

a: O=C(NC[C@@H](O)C[C@@H](Cc1ccccc1)C(=O)N[C@H]1c2ccccc2C[C@H]1O)c1ccc([N+](=O)[O-])cc1
b: O=C(N[C@H]1c2ccccc2C[C@H]1O)[C@H](Cc1ccccc1)C[C@H](O)CNS(=O)(=O)c1cccc([N+](=O)[O-])c1
Of the pair a and b , name the member with the lesser recorded inhibition. Use the label to indicate which entry you chose. a
(a: 18.6%, b: 35.1%)

###

- test_target: Vasoactive intestinal polypeptide receptor 2 (Homo sapiens) (UniProt P41587)
- experiment_summary: Antagonist activity at recombinant human N-terminal signal peptide/FLAG epitope-tagged VIPR2 expressed in HEK293 cells co-expressing CAMYEL assessed as inhibition of VIP-induced cAMP accumulation at 5 uM preincubated for 5 mins with luciferin, coelenterazine H followed by VIP addition measured after 5 mins by BRET assay relative to control
- Format: functional, cell-based
assay_endpoint: inhibition (%)

O=C(NC1CCCC1)[C@@H](Cc1ccccc1)C[C@H](O)CNS(=O)(=O)c1ccc([N+](=O)[O-])cc1 | -0.3

I: C#CCCCC(=O)NC[C@@H](O)C[C@@H](Cc1ccccc1)C(=O)N[C@H]1c2ccccc2C[C@H]1O
II: O=C(CCN1C(=O)C=CC1=O)NC[C@@H](O)C[C@@H](Cc1ccccc1)C(=O)N[C@H]1c2ccccc2C[C@H]1O
// which entry has the larger inhibition value, I or II ? Please respond with the label that marks your chosen entry. I
(I: 26.6%, II: 18.6%)
